Here, compounds appear alongside IC50 reported for Insulin receptor (Homo sapiens) in the literature.
Write down the numeric answer in nM and omit the unit.

Some solved entries appear below for comparison.
{"columns": ["smiles.structure", "target.or.test.system", "IC50 / nM"],
 "data": [
  ["COc1cc(P(C)(C)=O)ccc1Nc1ncc(Cl)c(Nc2ccccc2C(C)=O)n1", "Insulin receptor (Homo sapiens)", 0.88],
  ["Cc1cccc(C(=O)Nc2nc3cc(N(C)C(=O)C4CCCCC4)ccc3n2CCC(N)=O)c1", "Insulin receptor (Homo sapiens)", 550],
  ["CN1CCN(c2ccc(Nc3ncc4ccc(-c5ccccc5N(C)S(C)(=O)=O)n4n3)cc2)CC1", "Insulin receptor (Homo sapiens)", 366],
  ["O=C(Nc1n[nH]c2ccc(Cc3cc(F)cc(F)c3)cc12)c1ccc(CN2CCCCC2)cc1NC1CCOCC1", "Insulin receptor (Homo sapiens)", 653],
  ["COc1cc(N2CCC(N3CCOCC3)CC2)ccc1Nc1ncc(Cl)c(Nc2ccccc2P(C)(C)=O)n1", "Insulin receptor (Homo sapiens)", 270]
]}

Record "COc1cc(N2CCC(N3CCN(C)CC3)CC2)ccc1Nc1ncc(OC)c(Nc2ccccc2P(C)(C)=O)n1" . Reported IC50: 1680

Record "CNCc1ccc2c(c1)[nH]/c(=N\C(=O)c1ccc(-c3cn[nH]c3)s1)n2CC(C)(C)O" . Reported IC50: 500

Record "COc1cc(-c2c[nH]c(=O)c(C(=O)Nc3ccc(CN4CCN(C)CC4)cc3)c2)cc(OC)c1OC" . Reported IC50: 33500

Record "Nc1ccccc1NC(=O)CCc1ccc(-c2ccc3ncnc(Nc4ccc(OCc5cccc(F)c5)c(Cl)c4)c3c2)cc1" . Reported IC50: 7100

Record "CN(C)CCN(C)C(=O)c1ccc(C(=O)Nc2n[nH]c3ccc(Cc4cc(F)cc(F)c4)cc23)c(NC2CCOCC2)c1" . Reported IC50: 457

Record "C[C@@H](N(C)Cc1ccc2c(c1)nc(NC(=O)c1ccc(-c3cn[nH]c3)s1)n2CC(C)(C)O)C(C)(C)C" . Reported IC50: 230
